- Protocol Text: Induction of apoptosis in human PANC1 cells assessed as viable cells at 2 uM after 24 hrs by Annexin V-FITC/propidium iodide staining-based flow cytometric analysis in absence of UVA-1 irradiation (reference value: 88.6%)
- Format: cell-based, PANC-1
- Applied Conditions: read-out: Activity
Quantity Kind: viability at 24 h, 2 µM (%)
Provide the reading as a plain figure in %.

Item under review: `Cc1cn([C@H]2C[C@H](n3cc(CNC(=O)CCCCCOc4ccc5c(c4)-c4nc6cc(Cl)c(Cl)cc6nc4[C@@H]4C(C)(C)CCC[C@]54C)nn3)[C@@H](CO)O2)c(=O)[nH]c1=O` . Reported viability at 24 h, 2 µM?
89.4
